Each entry below carries its measured pIC50, system: UniProt P30838.
Sequence (P30838 whole entry): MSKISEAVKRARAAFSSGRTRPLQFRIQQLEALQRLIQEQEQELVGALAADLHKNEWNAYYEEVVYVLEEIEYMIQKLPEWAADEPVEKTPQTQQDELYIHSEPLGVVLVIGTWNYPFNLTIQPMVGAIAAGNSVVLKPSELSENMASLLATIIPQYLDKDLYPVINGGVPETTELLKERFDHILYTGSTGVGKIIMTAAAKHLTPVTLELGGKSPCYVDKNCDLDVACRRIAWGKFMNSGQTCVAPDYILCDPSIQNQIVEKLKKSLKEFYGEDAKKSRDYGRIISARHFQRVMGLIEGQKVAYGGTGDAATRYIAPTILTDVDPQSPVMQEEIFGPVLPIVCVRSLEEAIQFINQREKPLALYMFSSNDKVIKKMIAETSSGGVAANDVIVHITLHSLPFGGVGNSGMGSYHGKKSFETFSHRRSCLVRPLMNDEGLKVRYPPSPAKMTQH
pIC50: −log10 of the molar value.

Here are 2 compounds together with their reported answers.
CCN1CCN(Cc2nc3c(c(=O)n(C)c(=O)n3C)n2CCC(C)C)CC1 [CM030]    < 4.00
Cn1c(=O)c2c(nc(N3CCOCC3)n2Cc2ccccc2F)n(C)c1=O [CM051]    < 4.00

Provide each entry's pIC50 from the list below.
1. CCCCn1c(CN2CCN(c3cccc(Cl)c3)CC2)nc2c1c(=O)n(C)c(=O)n2C [CM031]
2. CCN1CCN(Cc2nc3c(c(=O)n(C)c(=O)n3C)n2CC(=O)c2ccccc2)CC1 [CM027]
3. CC(C)CCn1c(CN(C)Cc2ccccc2)nc2c1c(=O)n(C)c(=O)n2C [CM054]

1. < 4.00
2. < 4.00
3. < 4.00

Items follow; give pIC50 for each.
1. CCC1CCCCN1Cc1nc2c(c(=O)n(C)c(=O)n2C)n1Cc1cccc(C)c1 (stereo not drawn) [CM029]
2. CCCCn1c(CN2CCN(c3ccc(OC)cc3)CC2)nc2c1c(=O)n(C)c(=O)n2C [CM024]
3. CCCCn1c(Oc2ccc(C(=O)OC)cc2)nc2c1c(=O)n(C)c(=O)n2C [CM022]
4. Cn1c(=O)c2c(nc(N3CCN(Cc4ccccc4)CC3)n2Cc2cccc(Cl)c2)n(C)c1=O [CM052]

["< 4.00", "< 4.00", "< 4.00", "< 4.00"]

* * *

Molecular target: ALDH1A2 (Homo sapiens, UniProt O94788)
Sequence (O94788 1-518): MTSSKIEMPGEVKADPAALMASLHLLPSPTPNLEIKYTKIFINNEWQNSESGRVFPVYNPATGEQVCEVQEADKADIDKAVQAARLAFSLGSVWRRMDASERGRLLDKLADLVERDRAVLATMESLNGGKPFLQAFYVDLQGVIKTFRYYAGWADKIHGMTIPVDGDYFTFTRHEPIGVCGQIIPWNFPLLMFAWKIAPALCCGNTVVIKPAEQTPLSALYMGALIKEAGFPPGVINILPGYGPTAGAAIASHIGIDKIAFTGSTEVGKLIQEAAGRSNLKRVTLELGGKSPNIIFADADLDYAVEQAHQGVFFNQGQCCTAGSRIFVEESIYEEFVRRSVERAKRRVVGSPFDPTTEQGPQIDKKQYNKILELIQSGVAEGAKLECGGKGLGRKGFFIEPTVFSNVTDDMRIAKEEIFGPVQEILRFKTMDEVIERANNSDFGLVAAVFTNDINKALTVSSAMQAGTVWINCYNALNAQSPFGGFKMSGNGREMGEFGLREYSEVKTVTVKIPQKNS
Assay: Aldehyde dehydrogenase activity assay, propionaldehyde oxidation
Format: biochemical
Conditions: human, purified recombinant ALDH1A2, probe propionaldehyde (100 µM)
Endpoint: IC50

What value of IC50 has been reported for the following compound? Cn1c(=O)c2[nH]cnc2n(C)c1=O [Theophylline, reference compound]
> 100 µM

Cited source for all entries: paper PMC4344389
